Biological target: T1, Activin B (UniProt P09529 293-407)
T1 sequence (looked up): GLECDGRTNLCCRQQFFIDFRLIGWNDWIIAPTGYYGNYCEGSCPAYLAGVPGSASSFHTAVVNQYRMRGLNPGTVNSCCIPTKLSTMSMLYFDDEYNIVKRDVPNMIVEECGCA
Test: SPR (Biacore 3000), Fc fusion captured, ligand in solution
Measured pKd accompanies every entry in the list below.
Scale: negative log10 of molar concentration, which is what pKd denotes.

Some binders with known pKd results, for comparison:
{"binder": "ActRIIB 2.06 variant (SEQ ID NO: 9)-Fc (Fc fusion, not shown: a dimerising Fc or GST, Engineered variant of the human ActRIIB extracellular portion; recombinant protein; also called ActRIIB variant 2.06-hFc) GRGEAETRECIYYNANWELERTNQSGLERCEGEQDKRLHCFASWKNSSGTIELVKQGCWLDDFNCYDRQECVAKKDSPEVYFCCCEGNFCNERFTHLPEAGGPEVTYEPPPTAPT", "pKd": 10.00}
{"binder": "ActRIIB 2.09 variant (SEQ ID NO: 12)-Fc (Fc fusion, not shown: a dimerising Fc or GST, Engineered variant of the human ActRIIB extracellular portion; also called ActRIIB variant 2.09-hFc) GRGEAETRECLYYNANWELERTNQSGVERCEGEKDKRLHCYASWRNSSGSLEIVKKGCWLDDFNCYDRTDCVATEENPQVYFCCCEGNMCNERFTHLPEAGGPEVTYEPPPTAPT", "pKd": 9.80}
{"binder": "ActRIIB 2.11 variant (SEQ ID NO: 14)-Fc (Fc fusion, not shown: a dimerising Fc or GST, Engineered variant of the human ActRIIB extracellular portion; recombinant protein) GRGEAETRECLYYNANWELERTNQSGVERCEGEKDKRLHCYASWRNSSGSLEIVKKGCWLDDFNCYDRTDCVATKENPQVYFCCCEGNMCNERFTHLPEAGGPEVTYEPPPTAPT", "pKd": 9.43}

pKd reported for this binder ActRIIB 2.10 variant (SEQ ID NO: 13)-Fc (Fc fusion, not shown: a dimerising Fc or GST, Engineered variant of the human ActRIIB extracellular portion; also called ActRIIB variant 2.10-hFc) GRGEAETRECLYYNANWELERTNQSGVERCEGEKDKRLHCYASWRNSSGSLEIVKKGCWLDDFNCYDRDTCVATEENPQVYFCCCEGNMCNERFTHLPEAGGPEVTYEPPPTAPT : 9.55
